Reference for the values: the kinase profiling compilation of Christmann-Franck et al. (2016)

# measured target: HIPK1 (human)
# assay protocol: KINOMEscan competition binding
# assay setup: compound 10.0 µM
measured property: kinase still bound, per cent of control (%)
Give your result in % as a bare value.

Solved cases (5 shown):
>>> numeric_value("N=C1NC(=O)/C(=C/c2ccc(-c3ccc(Cl)cc3)o2)S1")
0.2
>>> numeric_value("N=C1NC(=O)/C(=C/c2ccc(-c3ccc4c(C(=O)Nc5ccc(N6CCNCC6)cc5)cccc4c3)o2)S1")
0.25
>>> numeric_value("CS(=O)(=O)Nc1ccc(-c2ccc(/C=C3\\SC(=N)NC3=O)o2)cc1")
0
>>> numeric_value("N=C1NC(=O)/C(=C/c2ccc(-c3ccc(C(N)=O)cc3O)o2)S1")
0.35
>>> numeric_value("CN1CCN(c2ccc(C(=O)Nc3ncc4c(n3)N(C)c3ccccc3C(=O)N4C)cc2)CC1")
100

Prompt: Please look at this compound and report its kinase still bound, per cent of control: "NS(=O)(=O)c1ccc(-c2ccc(/C=C3\SC(=O)NC3=O)o2)cc1"
Response: 2.4

Prompt: Please give the documented kinase still bound, per cent of control of "O=C1NC(=S)S/C1=C\c1ccc(-c2cccc3ccccc23)o1"
Response: 3.7

Prompt: Tell us which kinase still bound, per cent of control value is on record for "CSC1=NC(=O)/C(=C/c2ccc(-c3ccc(S(N)(=O)=O)cc3)o2)S1"
Response: 6.5

###

# measured target: NEK7 (human) (UniProt Q8TDX7)
# Sequence (Q8TDX7 whole entry, looked up): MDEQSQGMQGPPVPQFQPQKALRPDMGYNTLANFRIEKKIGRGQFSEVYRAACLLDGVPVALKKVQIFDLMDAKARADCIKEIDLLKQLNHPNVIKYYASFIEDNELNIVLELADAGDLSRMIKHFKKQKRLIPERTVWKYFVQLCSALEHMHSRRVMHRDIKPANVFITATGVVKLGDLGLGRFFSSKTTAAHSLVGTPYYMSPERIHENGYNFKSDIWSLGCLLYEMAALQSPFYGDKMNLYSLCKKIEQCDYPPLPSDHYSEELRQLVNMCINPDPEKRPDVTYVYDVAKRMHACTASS
# assay protocol: KINOMEscan competition binding
# assay setup: compound 10.0 µM
kinase still bound, per cent of control overview
Answer shape: numeric part, then the unit.

Some solved entries appear below for comparison.
>>> result("COc1cc(N2CCC(O)CC2)ccc1Nc1ncc2c(n1)N1CCc3cccc(c31)C(=O)N2C")
"98%"
>>> result("O=C1NC(=S)S/C1=C\\c1ccc(-c2cccc3ccccc23)o1")
"27%"
>>> result("CN1C(=O)c2ccccc2N(C)c2nc(NS(=O)(=O)c3ccc(N)cc3)ncc21")
"89%"
>>> result("COc1cc(N2CCN(C)CC2)ccc1Nc1ncc2c(n1)N(C)c1ccccc1N(C)C2=O")
"81%"
>>> result("N=C1NC(=O)/C(=C/c2ccc(-c3cncc4ccccc34)o2)S1")
"15%"

Prompt: Retrieve kinase still bound, per cent of control measured for "O=C1NC(=O)/C(=C/c2c[nH]c(=O)c(-c3ccc(N4CCNCC4)nc3)c2)S1" and print it.
Response: 100%

Prompt: Return reported kinase still bound, per cent of control. Input compound: "COc1cc(N2CCN(C)CC2)ccc1Nc1ncc2c(n1)Nc1ccccc1NC2=O"
Response: 70%

Prompt: Tell us which kinase still bound, per cent of control value is on record for "CN1C(=O)c2ccccc2N(C)c2nc(Nc3ccc(N4CCC(O)CC4)cc3)ncc21"
Response: 100%

Prompt: Give the value of kinase still bound, per cent of control reported for the following: "N=C1NC(=O)/C(=C/c2ccc(-c3csc4ccccc34)o2)S1"
Response: 33%

Prompt: Supply kinase still bound, per cent of control value. Item: "CN1CCN(c2ccc(C(=O)Nc3ncc4c(n3)N(C)c3ccccc3C(=O)N4C)cc2)CC1"
Response: 100%

Prompt: Please list kinase still bound, per cent of control recorded for the compound "COc1cc(N2CCN(C)CC2)ccc1Nc1ncc2c(n1)N(C)c1sccc1C(=O)N2C"
Response: 93%

Prompt: Determine from records and report kinase still bound, per cent of control for "O=C1NC(=S)S/C1=C\c1ccc(-c2cncc3ccccc23)o1"
Response: 17%
